# Test system: SF-539
# Test: NCI tumour cell line growth inhibition, 48 h
Activity calls are given as the source filed them. Cut-off read from the data, not from the text of the source: active = GI50 up to about 1.1 µM and inactive = higher.
Recorded GI50 by entry

Q: Please give the measured GI50 for this compound: O=S(=O)(O)c1cccc2cccc(/N=N/c3c(O)ccc4ccccc34)c12
Result: > 100 µM (inactive)

* * *

# System: HOP-92
# Test: NCI tumour cell line growth inhibition, 48 h
The source made the active and inactive calls. No stated cut-off is given here; in the data, active = GI50 up to about 1.1 µM and inactive = higher.
Entry note: the call must match one of Yes for active, No for inactive

COc1cc(C2c3cc4c(cc3[C@@H](Nc3ccc(N)cc3)C3COC(=O)[C@H]23)OCO4)cc(OC)c1O (some centres not stated) | Yes
O=C(Nc1cccc(NC(=O)C(=O)C2CCC3=C(Sc4ccccc4N3)C2=O)n1)C(=O)C1CCC2=C(Sc3ccccc3N2)C1=O (configuration not stated) | No
c1ccc([B-]23Oc4ccccc4[NH+]2c2ccccc2O3)cc1 (configuration not stated) | No
CC(C)C(=O)Nc1nc2[nH]cnc2c(=O)[nH]1 | No
C/C(CCn1[nH]c(=O)ccc1=O)=N\Nc1ccc([N+](=O)[O-])cc1[N+](=O)[O-] | No

Q: Recorded call for CC(=O)OC1COC(N2c3ccccc3[C@@H]3CCc4c([nH]c5ccccc45)[C@@H]32)C(OC(C)=O)C1OC(C)=O.CC(=O)OC1COC(N2c3ccccc3[C@H]3CCc4c([nH]c5ccccc45)[C@H]32)C(OC(C)=O)C1OC(C)=O (some centres not stated) ?
Result: No

Q: Would you kindly repeat that for CC(=O)OC12c3ccccc3-c3ccccc3C1C(C(=O)O)C2C(=O)O (configuration not stated) ?
Result: No

Q: Would you kindly repeat that for CCCCCCCCCCCCCCCCNC(=O)/C(=C\c1ccc(Cl)c(Cl)c1)NC(=O)c1ccccc1 ?
Result: No

Q: Would you kindly repeat that for O=C1c2cccc(O)c2C(=O)c2c(O)cc(CO)cc21 [ALOE-EMODIN] ?
Result: No

Q: Would you kindly repeat that for CN(C)c1n/c(=N/c2ncn[nH]2)ss1 ?
Result: No

Q: Would you kindly repeat that for c1ccc(CCN2CCCCCC2)nc1 ?
Result: No

Q: Would you kindly repeat that for CCOC(=O)CCN1C(=O)c2c(NC(=O)C(=O)O)cccc2S1(=O)=O ?
Result: No

Q: Would you kindly repeat that for O=C1O/C(=C(/Br)c2ccc(Cl)c(Cl)c2)c2ccccc21 ?
Result: No

Q: Would you kindly repeat that for CC(=O)Nc1ccc(NC(=O)c2c(Cl)c(Cl)c(Cl)c(Cl)c2-c2nc3ccccc3[nH]2)cc1 ?
Result: No

Q: Would you kindly repeat that for CC(=O)OC1CC[C@@]2(C)C(CC[C@]3(C)C2CC=C2[C@@H]4CC(C)(C)CCC4(C)CCC23C)[C@@]1(C)C(=O)O (some centres not stated) ?
Result: No

Q: Would you kindly repeat that for CN(C)S(=O)(=O)n1ccnc1 ?
Result: No

Q: Would you kindly repeat that for CC(C)(C)c1cc(-c2c3nc(c(-c4cc(C(C)(C)C)cc(C(C)(C)C)c4)c4ccc([nH]4)c(-c4cc(C(C)(C)C)cc(C(C)(C)C)c4)c4nc(c(-c5cc(C(C)(C)C)cc(C(C)(C)C)c5)c5ccc2[nH]5)C=C4)C=C3)cc(C(C)(C)C)c1 ?
Result: No
